EXPERIMENTAL_SYSTEM: S1P1-R (Homo sapiens, UniProt P21453)
Sequence (P21453 whole entry): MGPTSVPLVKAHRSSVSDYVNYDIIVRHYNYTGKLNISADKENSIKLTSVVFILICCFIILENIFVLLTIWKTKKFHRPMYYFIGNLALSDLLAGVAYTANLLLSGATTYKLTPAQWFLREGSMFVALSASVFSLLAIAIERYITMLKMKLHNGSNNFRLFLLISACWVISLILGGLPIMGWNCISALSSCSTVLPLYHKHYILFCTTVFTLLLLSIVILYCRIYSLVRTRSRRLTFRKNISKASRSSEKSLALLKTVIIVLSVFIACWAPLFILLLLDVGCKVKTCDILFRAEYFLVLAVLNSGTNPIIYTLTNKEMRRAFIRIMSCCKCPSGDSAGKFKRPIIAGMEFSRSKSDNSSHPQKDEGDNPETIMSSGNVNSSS
METHOD_NOTES: S1P1-R agonist assay
Assay type: cell-based
QUANTITY_MEASURED: activity at S1P1-R (in words)

| COMPOUND_STRUCTURE_STRING | REPORTED |
| --- | --- |
| CCCc1cc(C(=O)N(c2ccccc2)C2CCCCC2)no1 | complete loss of potency |
| CCCc1cc(C(=O)NC2CCCCC2)no1 | complete loss of potency |
| O=C(c1cc(C2CCCCC2)on1)N(C1CCCCC1)C1CCCCC1 | inactive |
| O=C(c1cc(C2CCCC2)on1)N(C1CCCCC1)C1CCCCC1 | inactive |
